Each entry below carries its measured pIC50, system: HCoV-229E 3CL^pro (Human coronavirus 229E).
Sequence (P0C6X1 2966-3267): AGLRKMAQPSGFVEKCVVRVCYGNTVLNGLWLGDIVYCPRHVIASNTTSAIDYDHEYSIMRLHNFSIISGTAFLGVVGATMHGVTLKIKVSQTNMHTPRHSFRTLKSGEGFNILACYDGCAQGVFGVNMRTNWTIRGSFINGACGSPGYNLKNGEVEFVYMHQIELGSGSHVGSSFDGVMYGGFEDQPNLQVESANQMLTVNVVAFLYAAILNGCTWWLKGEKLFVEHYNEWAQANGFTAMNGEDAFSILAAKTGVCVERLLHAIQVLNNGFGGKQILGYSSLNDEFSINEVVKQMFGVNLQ
Units for pIC50: none; it is -log10 of a concentration expressed in mol/L.

[in] Could you please provide reported pIC50 for `CC1(C)C[C@@H](CN(NC(=O)[C@@H]2[C@H]3CCC[C@H]3CN2C(=O)[C@@H](NC(=O)C(F)F)C(C)(C)C)C(=O)[C@H](F)Cl)C(=O)N1` ? Thanks!
[out] 5.77

[in] For `CC[C@H](C)[C@H](NC(=O)C1(F)CC1)C(=O)N1C[C@H]2[C@@H]([C@H]1C(=O)NN(C[C@@H]1CC(C)(C)NC1=O)C(=O)[C@H](F)Cl)C2(C)C` , write its pIC50.
[out] 6.38

[in] Quickly give me recorded pIC50 for `CC(C)(C)[C@H](NC(=O)[C@@H]1CC1(F)F)C(=O)N1C[C@@H]2CCC[C@@H]2[C@H]1C(=O)NN(C[C@@H]1C(=O)N[C@@H]2C[C@H]12)C(=O)[C@@H](F)Cl`
[out] 6.59

[in] Given `C[C@@H]1C[C@@H](CN(NC(=O)[C@@H]2[C@@H]3[C@H](CN2C(=O)[C@@H](NC(=O)[C@@H]2CC2(F)F)C(C)(C)C)C3(C)C)C(=O)[C@@H](F)Cl)C(=O)N1` , respond with its pIC50.
[out] 7.43
